Catalogue of binders with associated Mean % WT Binding
biological target: human CD33 S307A (human, UniProt P20138 18-364); experiment: alanine scan, flow cytometry, HEK293-T;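 note: antibody binding to each alanine-substituted CD33 mutant expressed transiently in HEK293-T, read as fluorescence minus background, mean of duplicates, relative to wild-type CD33 set as 100%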
Sequence (P20138 18-364 S307A limits assumed): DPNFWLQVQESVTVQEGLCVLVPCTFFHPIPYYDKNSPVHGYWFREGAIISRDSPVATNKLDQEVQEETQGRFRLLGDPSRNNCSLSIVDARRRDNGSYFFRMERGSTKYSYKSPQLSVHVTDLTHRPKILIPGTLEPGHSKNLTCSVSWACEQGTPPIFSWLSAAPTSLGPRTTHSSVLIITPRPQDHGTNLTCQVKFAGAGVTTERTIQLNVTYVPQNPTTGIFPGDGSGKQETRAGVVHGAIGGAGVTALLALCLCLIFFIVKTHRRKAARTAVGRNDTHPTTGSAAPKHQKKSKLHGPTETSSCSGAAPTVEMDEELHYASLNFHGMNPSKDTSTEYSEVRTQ

binder	Mean % WT Binding, % WT binding
Refmab #1 (antibody, V domains shown, The alanine scan used IgG or Fab; also called hP67.6) VH: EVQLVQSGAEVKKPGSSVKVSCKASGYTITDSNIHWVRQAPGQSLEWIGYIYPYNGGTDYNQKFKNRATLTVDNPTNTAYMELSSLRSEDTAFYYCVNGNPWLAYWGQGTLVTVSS VL: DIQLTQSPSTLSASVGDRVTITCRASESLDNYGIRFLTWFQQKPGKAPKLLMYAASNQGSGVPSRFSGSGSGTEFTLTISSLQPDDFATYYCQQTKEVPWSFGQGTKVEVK	94.8
Refmab #2 (antibody, V domains shown, The alanine scan used IgG or Fab) VH: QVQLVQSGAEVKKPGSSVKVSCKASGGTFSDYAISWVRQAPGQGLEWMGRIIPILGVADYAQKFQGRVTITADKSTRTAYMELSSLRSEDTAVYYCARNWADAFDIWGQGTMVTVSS VL: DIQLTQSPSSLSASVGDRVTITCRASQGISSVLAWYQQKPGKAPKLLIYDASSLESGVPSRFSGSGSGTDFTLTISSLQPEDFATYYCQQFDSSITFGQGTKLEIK	112
Refmab #4 (antibody, V domains shown, The alanine scan used IgG or Fab) VH: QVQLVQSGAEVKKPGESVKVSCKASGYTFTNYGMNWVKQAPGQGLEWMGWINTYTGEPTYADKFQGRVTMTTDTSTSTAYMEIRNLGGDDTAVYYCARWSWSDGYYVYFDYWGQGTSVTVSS VL: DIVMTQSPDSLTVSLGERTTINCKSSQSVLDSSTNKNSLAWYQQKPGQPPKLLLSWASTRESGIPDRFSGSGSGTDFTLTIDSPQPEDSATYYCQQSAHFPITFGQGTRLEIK	114
Refmab #3 (antibody, V domains shown, The alanine scan used IgG or Fab) VH: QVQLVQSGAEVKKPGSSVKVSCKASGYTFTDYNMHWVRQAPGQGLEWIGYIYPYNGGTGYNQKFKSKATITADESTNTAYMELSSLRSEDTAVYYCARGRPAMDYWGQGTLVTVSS VL: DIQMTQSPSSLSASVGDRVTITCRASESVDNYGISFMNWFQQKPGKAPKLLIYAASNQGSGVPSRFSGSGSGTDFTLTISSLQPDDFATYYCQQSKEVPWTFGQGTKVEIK	60.1
